Each recorded value in this set is attributed to ChEMBL document CHEMBL3297682.

Tested on: PC-3
assay_summary: Antiproliferative activity against human PC3 cells after 24 hrs by MTT assay
Type: functional, cell-based
applied_conditions: PC-3, 24 h
Can you tell me pIC50 for the items I'm about to list?
Lab note — pIC50 values are minus log10 of concentrations in M.

Entry `O=C1O/C(=C\Cn2cc(C3=CCCCC3)nn2)C(OCc2ccccc2)=C1OCc1ccccc1` , tested on PC-3, has a reported pIC50 of 4.25

Lab note: compound CC(C)(C)c1ccc(-c2cn(CCC3(O)C(OCc4ccccc4)=C(OCc4ccccc4)C(=O)N3CCc3ccccc3)nn2)cc1 (stereo not given) tested on PC-3; recorded pIC50 was 4.18

# lookup: COC1=C(OC)C(O)(CCn2cc(-c3ccccc3)nn2)NC1=O (stereo not given) on PC-3, pIC50 = 4.45

The recorded pIC50 with PC-3 for CCCc1cn(CCC2(O)C(OCc3ccccc3)=C(OCc3ccccc3)C(=O)N2CCC)nn1 (stereo not given) was 4.46
